Target Entity: 5-hydroxytryptamine receptor 1A (Rattus norvegicus)
Sequence (P19327 whole entry): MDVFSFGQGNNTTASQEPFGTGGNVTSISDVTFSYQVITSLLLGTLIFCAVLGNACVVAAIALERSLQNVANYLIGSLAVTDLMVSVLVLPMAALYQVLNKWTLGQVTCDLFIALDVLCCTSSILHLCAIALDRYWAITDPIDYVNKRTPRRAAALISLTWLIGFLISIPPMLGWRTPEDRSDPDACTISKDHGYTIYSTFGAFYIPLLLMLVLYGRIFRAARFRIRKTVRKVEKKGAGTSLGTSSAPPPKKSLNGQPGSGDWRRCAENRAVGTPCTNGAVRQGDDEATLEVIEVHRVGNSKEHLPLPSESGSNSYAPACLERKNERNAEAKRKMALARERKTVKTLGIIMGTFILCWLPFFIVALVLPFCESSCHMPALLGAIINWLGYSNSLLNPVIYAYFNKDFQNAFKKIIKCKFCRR
Measurement Protocol: Compound was evaluated for its binding affinity against 5-hydroxytryptamine 1A receptor from rat cerebral cortex
Format: tissue-based
Quantity: Ki (nM)
One number for each entry, in nM.

Completed entries (count: 4):
[
  {
    "Structure Notation": "CC(C)Oc1ccccc1N1CCN(Cc2cccc(C(=O)Nc3ccc(F)cc3)c2)CC1",
    "Quantity": "Ki",
    "Quantity Unit": "nM",
    "Numeric Readout": 11
  },
  {
    "Structure Notation": "CC(C)Oc1ccccc1N1CCN(Cc2cccc(C(=O)N3CCC3)c2)CC1",
    "Quantity": "Ki",
    "Quantity Unit": "nM",
    "Numeric Readout": 3.4
  },
  {
    "Structure Notation": "CCCCN(CCCC)C(=O)c1cccc(CN2CCN(c3ccccc3OC(C)C)CC2)c1",
    "Quantity": "Ki",
    "Quantity Unit": "nM",
    "Numeric Readout": 0.8
  },
  {
    "Structure Notation": "O=C(c1cccc(CN2CCN(c3ccccc3Cl)CC2)c1)N1CCCCC1",
    "Quantity": "Ki",
    "Quantity Unit": "nM",
    "Numeric Readout": 8.2
  }
]

Shift focus to the following entry.
query: Requested field: Ki. Item: CC(C)Oc1ccccc1N1CCN(Cc2cccc(C(=O)N3CCc4ccccc43)c2)CC1
result: 3.4

Reference for the values: ChEMBL document CHEMBL1131239
